For each entry below, report its EC50 hGLP1R 100% hP (CreLuc) value.
Target: human GLP-1 receptor (human, UniProt P43220 24-463)
Test: cell-based or functional assay
Starred links: 1 amine or outer side, 2 acyl side, 3 side chain; linkers in the order of their positions; H or OH if unused. Non-standard residues stand in square brackets, D forms with d. Groups on a side chain read outwards from the residue. No end group written: not given here. *: point of attachment. C20 diacid = O=C(O)CCCCCCCCCCCCCCCCCCC(=O)*; C18 diacid = O=C(O)CCCCCCCCCCCCCCCCC(=O)*; γGlu = O=C(O)[C@H](CCC(=O)[*:2])N[*:1]; AEEA = NCCOCCOCC(=O)O; Aib = CC(C)(N)C(=O)O
Don't forget the unit after the number, please.

# input Can you look up the measured EC50 hGLP1R 100% hP (CreLuc) of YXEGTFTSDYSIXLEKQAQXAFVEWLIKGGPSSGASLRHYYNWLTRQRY (Aib at 2, 13, 20; K28 side chain acylated with C18DA-gGlu-gGlu-gGlu-gGlu-gGlu-AHX; C-terminal amide (NH2)) [Compound 260] for me?
# output 2.78 nM

# input Cool, now Y[Aib]EGTFTSDYSI[Aib]LEKQAE[Aib]AFVEWLIK([γGlu-γGlu-γGlu-γGlu-C20 diacid])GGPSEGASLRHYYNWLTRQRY-NH2 (also: TFA salt) [Compound 280]
# output 14.7 nM

# input Cool, now Y[Aib]EGTFTSDYSI[Aib]LEKQAQ[Aib]AFVEWLIK([AEEA-AEEA-γGlu-γGlu-γGlu-γGlu-C18 diacid])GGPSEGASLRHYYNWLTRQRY-NH2 (also: TFA salt) [Compound 297]
# output 3.74 nM
